Molecular target: factor Xa (Homo sapiens, UniProt P00742)
Sequence (P00742 235-488 limits assumed): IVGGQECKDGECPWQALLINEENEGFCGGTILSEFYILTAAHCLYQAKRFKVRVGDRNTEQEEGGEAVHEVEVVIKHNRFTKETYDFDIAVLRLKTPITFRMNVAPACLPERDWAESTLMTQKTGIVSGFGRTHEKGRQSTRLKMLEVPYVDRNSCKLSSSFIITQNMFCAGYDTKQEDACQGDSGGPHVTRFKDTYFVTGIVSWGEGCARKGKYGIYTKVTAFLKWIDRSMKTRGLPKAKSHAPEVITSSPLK
Sequence (P00742 41-179 limits assumed): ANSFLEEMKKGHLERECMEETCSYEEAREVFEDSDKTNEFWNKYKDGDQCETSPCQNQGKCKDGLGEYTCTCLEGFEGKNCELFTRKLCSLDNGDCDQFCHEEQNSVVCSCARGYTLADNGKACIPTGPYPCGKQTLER
Experiment: Factor Xa assay (Test 1a), chromogenic
Type: biochemical
Design: purchased Enzyme Research Laboratories, Inc; South Bend, Ind
Settings: in vitro factor Xa assay Test 1a; human factor Xa 0.5 nM, substrate S-2765 140 μM, 25° C.; Ki from IC50 corrected for substrate competition
Text: The ability of a compound of formula (I) to inhibit factor Xa, thrombin, plasmin, elastase, and trypsin may be assessed by determining the concentration of compound of formula (I) that inhibits enzyme activity by 50% (IC50). Purified enzymes are used in chromogenic assays. To determine the inhibition constant, the IC50 value is corrected for competition with substrate using the formula: Ki=IC50×(1/{1+((substrate concentration)/substrate Km)}) where Km is the Michaelis-Menten constant. Y. -C. […]
Structures can show the parent of a compound that is named as a salt.
The threshold is 300 nM. Values of Ki beneath it are tagged Y; values meeting or exceeding it are tagged N.

Reference set (5 entries):
| Compound | Class Label |
| --- | --- |
| N=C(N)NCCC[C@H](NC(=O)[C@H](CO)NC(=O)C(Cc1ccc(C(=N)N)cc1)c1ccccc1)C(N)=O (mixture of isomers) [Example 57, trifluoroacetic acid salt] | N |
| N=C(N)NCCC[C@H](NC(=O)[C@H](CCC(=O)O)NC(=O)C(Cc1ccc(C(=N)N)cc1)c1ccc2ccccc2c1)C(=O)N[C@@H](CC1CCCCC1)C(N)=O (mixture of isomers) [Example 82, trifluoroacetic acid salt] | N |
| N=C(N)c1ccc(CC(C(=O)N[C@H](C(=O)NCC2CCN(C(=N)N)CC2)C2CCCCC2)c2ccccc2F)cc1 (single isomer, unassigned; less polar) [Example 235] | Y |
| N=C(N)c1ccc(CC(C(=O)NC(C(=O)NCC2CCN(C(=N)N)CC2)C2CCCCC2)C2CCCCC2)cc1 (single isomer, unassigned; less polar) [Example 113] | Y |
| N=C(N)c1ccc(CC(C(=O)N[C@H](C(=O)NCC2CCN(C(=N)N)CC2)C2CCCCC2)c2ccc(Cl)cc2)cc1 (single isomer, unassigned; less polar) [Example 216] | Y |

Ask: Quick check: does N=C(N)c1ccc(CC(C(=O)N[C@H](C(=O)NCC2CCN(C(=N)N)CC2)C2CCCCC2)c2cccc3ccccc23)cc1 (single isomer, unassigned; less polar) [Example 241] have Ki under 300 nM?
Reply: Y

Ask: Quick check: does CCC(C)[C@@H](C(=O)N[C@@H](CCCNC(=N)N)C(N)=O)N(C)C(=O)C(Cc1ccc(C(=N)N)cc1)c1cccnc1 (mixture of isomers) [Example 18, trifluoroacetic acid salt] have Ki under 300 nM?
Reply: N

Ask: Quick check: does N=C(N)NCCC[C@H](NC(=O)[C@H](Cc1ccc2ccccc2c1)NC(=O)C(Cc1ccc(C(=N)N)cc1)c1ccc2ccccc2c1)C(N)=O (mixture of isomers) [Example 39, trifluoroacetic acid salt] have Ki under 300 nM?
Reply: N

Ask: Quick check: does Cc1ccc(C(Cc2ccc(C(=N)N)cc2)C(=O)NC(C(=O)NCC2CCN(C(=N)N)CC2)C2CCCCC2)cc1 (single isomer, unassigned; less polar) [Example 172] have Ki under 300 nM?
Reply: Y

Ask: Quick check: does N=C(N)NCCCC(NC(=O)C(NC(=O)C(Cc1ccc(C(=N)N)cc1)C1CCCCC1)C1CCCCC1)C(=O)O (single isomer, unassigned; less polar) [Example 6] have Ki under 300 nM?
Reply: Y
